# assayProcedure: Partition coefficient (logD3.0)
# experimentalParameters: octanol/water, pH 3
propertyMeasured: logD
Answer field: number only, no words.

Measured logD of `Cc1ccc(/C(=C\CN2CCCC2)c2cccc(/C=C/C(=O)O)n2)cc1` : -0.48

----------
# assayProcedure: Partition coefficient (logD4.6)
# Assay type: physicochemical
# experimentalParameters: octanol/water, pH 4.6
propertyMeasured: logD
Please give only the number in your answer, with no unit.

logD reported for this compound CC(CCc1ccccc1)NCC(O)c1ccc(O)c(C(N)=O)c1 (stereo unspecified) : -0.8

----------
# assayProcedure: Partition coefficient (logD1.5)
# experimentalParameters: octanol/water, pH 1.5
propertyMeasured: logD
Output: the number by itself.

GET /value?item= `Cc1ccc(/C(=C\CN2CCCC2)c2cccc(/C=C/C(=O)O)n2)cc1` &field=logD returns -0.93

----------
# assayProcedure: Partition coefficient (logD9.4)
# experimentalParameters: octanol/water, pH 9.4
propertyMeasured: logD
// return a plain number; no unit text

response.value for Cc1ccc(/C(=C\CN2CCCC2)c2cccc(/C=C/C(=O)O)n2)cc1 [ACRIVASTINE] (field: logD) = 0.24

----------
# assayProcedure: compound was evaluated for reverse occurs for the rate constant(log K-1) at pH 7.4
# Assay type: ADME
# experimentalParameters: buffer
Peptide text beside a SMILES is read from it.
propertyMeasured: Log K-1

Log K-1 measured on Oc1ccccc1 [PHENOL] = -2.5

Record `CN(C(=O)C1=C(O)c2ccccc2S(=O)(=O)N1C)c1ccccn1` , field Log K-1: -1.73

Sure, the documented Log K-1 for CC(C)C[C@H](N)C(=O)N[C@@H](Cc1ccccc1)C(=O)O (H-Leu-Phe-OH) is -1.77

Quick note, Log K-1 for CNCc1ccccc1 [N-BENZYLMETHYLAMINE] landed at -1.94
